Recorded IC50 for the following molecules
# target_entity: human NaV 1.8 (Homo sapiens, UniProt Q9Y5Y9)
# Sequence (Q9Y5Y9 126-399 limits assumed): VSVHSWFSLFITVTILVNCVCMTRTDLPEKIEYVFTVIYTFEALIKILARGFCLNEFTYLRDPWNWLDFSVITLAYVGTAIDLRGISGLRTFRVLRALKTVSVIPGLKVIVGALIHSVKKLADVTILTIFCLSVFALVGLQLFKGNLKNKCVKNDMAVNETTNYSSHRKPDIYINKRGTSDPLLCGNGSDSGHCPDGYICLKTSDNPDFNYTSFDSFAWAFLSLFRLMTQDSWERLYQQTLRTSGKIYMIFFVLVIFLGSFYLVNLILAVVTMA
# Sequence (Q9Y5Y9 660-890 limits assumed): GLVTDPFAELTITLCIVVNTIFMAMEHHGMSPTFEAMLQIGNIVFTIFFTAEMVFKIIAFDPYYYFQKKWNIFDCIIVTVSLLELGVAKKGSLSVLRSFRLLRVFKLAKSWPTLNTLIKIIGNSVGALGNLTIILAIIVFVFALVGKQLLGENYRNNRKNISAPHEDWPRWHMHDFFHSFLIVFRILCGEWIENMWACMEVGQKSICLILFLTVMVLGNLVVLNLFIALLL
# Sequence (Q9Y5Y9 1148-1722 limits assumed): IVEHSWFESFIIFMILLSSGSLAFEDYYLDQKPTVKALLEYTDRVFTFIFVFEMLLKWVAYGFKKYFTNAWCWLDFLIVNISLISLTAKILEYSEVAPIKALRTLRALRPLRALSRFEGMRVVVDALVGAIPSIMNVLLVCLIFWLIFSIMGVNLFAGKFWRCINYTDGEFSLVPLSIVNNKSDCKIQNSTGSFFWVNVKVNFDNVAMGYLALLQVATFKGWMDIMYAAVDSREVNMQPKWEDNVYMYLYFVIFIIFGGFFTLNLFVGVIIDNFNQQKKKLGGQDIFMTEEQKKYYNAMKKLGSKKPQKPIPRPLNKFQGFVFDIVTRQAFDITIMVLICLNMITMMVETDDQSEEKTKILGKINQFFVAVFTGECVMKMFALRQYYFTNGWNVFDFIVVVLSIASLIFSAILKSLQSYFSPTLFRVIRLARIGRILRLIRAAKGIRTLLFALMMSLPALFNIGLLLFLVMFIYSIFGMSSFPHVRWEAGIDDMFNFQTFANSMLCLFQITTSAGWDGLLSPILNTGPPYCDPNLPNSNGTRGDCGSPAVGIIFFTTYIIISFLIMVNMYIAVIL
# assay_details: E-VIPR assay detecting and measuring NaV inhibition properties
# Type: cell-based
# cond: HEK cells expressing truncated human NaV 1.8; no human serum; read-out: IC50 in the E-VIPR Assay

Solved cases (5 shown):
molecule	IC50
COc1c([C@H]2[C@H](C(=O)Nc3ccc(C(=O)N(C)O)nc3)O[C@@](C)(C(F)(F)F)[C@H]2C)ccc(F)c1F	0.01 to 0.1 µM
COCC(O)c1cc(NC(=O)[C@@H]2O[C@@](C)(C(F)(F)F)[C@@H](C)[C@H]2c2ccc(F)c(F)c2OCCN2CCOCC2)ccn1 (single isomer, unassigned)	0.01 to 0.1 µM
CCOc1c([C@@H]2[C@@H](C(=O)Nc3ccn(C)c(=O)c3)O[C@](C)(C(F)(F)F)[C@@H]2C)ccc(F)c1F (stereo in doubt)	≥ 1 µM
COc1c(C2C(C(=O)Nc3ccn4nnnc4c3)OC(C)(C(F)(F)F)C2C)ccc(F)c1C (racemic) [Compound 132]	< 0.01 µM
COc1c([C@H]2[C@H](C(=O)NCC(C)(C)C(N)=O)O[C@@](C)(C(F)(F)F)[C@H]2C)ccc(F)c1F	≥ 1 µM

Record `COc1c([C@H]2[C@H](C(=O)Nc3ccnc(S(N)(=O)=O)c3)O[C@@](C)(C(F)(F)F)[C@H]2C)ccc(F)c1F` , field IC50: < 0.01 µM

Sample `COC(=O)COc1c([C@H]2[C@H](C(=O)Nc3cn(C(F)F)nc3C)O[C@@](C)(C(F)(F)F)[C@H]2C)ccc(F)c1F` ; IC50 observed: < 0.01 µM

Item: `COc1c([C@H]2[C@H](C(=O)Nc3ccnc(CC(C)(C)O)c3)O[C@@](C)(C(F)(F)F)[C@H]2C)ccc(F)c1F` | IC50: 0.01 to 0.1 µM

IC50 measured on `Cc1cnc(COc2c([C@H]3[C@H](C(=O)Nc4cccnc4)O[C@@](C)(C(F)(F)F)[C@H]3C)ccc(F)c2F)n1C` = < 0.01 µM

Noted for CCOc1c(C2C(C(=O)Nc3ccnc(S(C)(=N)=O)c3)OC(C)(C(F)(F)F)C2C)ccc(F)c1F (single isomer, unassigned) [Compound 109] : its IC50 reads 0.1 to 1 µM

So for COc1c([C@H]2[C@H](C(=O)Nc3cc(C4(N)CCOC4)ncc3F)O[C@@](C)(C(F)(F)F)[C@H]2C)ccc(F)c1F (single isomer, unassigned) [Compound 349] , the logged IC50 turned out to be < 0.01 µM

Note to self: IC50 recorded for COc1c([C@H]2[C@H](C(=O)Nc3ccnc(C(C)(O)CO)c3)OC(C)(C)[C@H]2C)ccc(F)c1F (single isomer, unassigned) [Compound 731] was 0.1 to 1 µM

Record summary for `COc1c([C@H]2[C@H](C(=O)Nc3ccnc(N4CCN(C)[C@H](C)C4=O)c3)O[C@@](C)(C(F)(F)F)[C@H]2C)ccc(F)c1F` : reported IC50 = 0.01 to 0.1 µM

IC50 reading for COc1c([C@H]2[C@H](C(=O)Nc3cc(C(O)CO)ncc3F)O[C@@](C)(C(F)(F)F)[C@H]2C)ccc(F)c1F (single isomer, unassigned) : < 0.01 µM

Sample COc1c([C@H]2[C@H](C(=O)NC(C)c3ccc(C)c(F)c3)O[C@@](C)(C(F)(F)F)[C@H]2C)ccc(F)c1F (stereo partly drawn) ; IC50 observed: ≥ 1 µM

Per the record, `COc1c([C@H]2[C@H](C(=O)Nc3ccc(C#N)nc3)O[C@@](C)(C(F)(F)F)[C@H]2C)ccc(F)c1F` has IC50 of 0.01 to 0.1 µM

Measured IC50, C[C@@H]1[C@H](c2ccc(F)c(F)c2OC(F)F)[C@@H](C(=O)Nc2ccnc(CC(C)(C)O)c2)O[C@]1(C)C(F)(F)F (single isomer, unassigned) : ≥ 1 µM

---

Some molecules, each annotated with its measured pIC50.
# target_entity: human NaV 1.8 (Homo sapiens)
# assay_details: E-VIPR assay detecting and measuring NaV inhibition properties
# Assay type: cell-based
# cond: HEK cells expressing truncated human NaV 1.8; no human serum; read-out: IC50 in the E-VIPR Assay
# Text: Sodium ion channels are voltage-dependent proteins that can be activated by inducing membrane voltage changes by applying electric fields. The electrical stimulation instrument and methods of use, referred to as E-VIPR, are described in International Publication No. WO 2002/008748 A3 and C.-J. Huang et al. Characterization of voltage-gated sodium channel blockers by electrical stimulation and fluorescence detection of membrane potential, 24 Nature Biotech. […]
pIC50: −log10 of the molar value.

Some entries whose results are on file:
molecule	pIC50
COc1c([C@H]2[C@H](C(=O)NCCc3cnn(C)c3)O[C@@](C)(C(F)(F)F)[C@H]2C)ccc(F)c1F	≤ 6.00
CNc1ccc(NC(=O)[C@@H]2O[C@@](C)(C(F)(F)F)[C@@H](C)[C@H]2c2ccc(F)c(F)c2OC)cn1	7.00 to 8.00

pIC50 reported for this molecule `COc1ncc(NC(=O)[C@@H]2O[C@@](C)(C(F)(F)F)[C@@H](C)[C@H]2c2ccc(F)c(F)c2OC)cc1CO` : 6.00 to 7.00

Recorded result, `C[C@H]1[C@@H](c2ccc(F)c(F)c2O[C@H]2C[C@@H](O)C2)[C@H](C(=O)Nc2ccn(C)c(=O)c2)O[C@@]1(C)C(F)(F)F` , pIC50: 7.00 to 8.00

Record COc1c([C@H]2[C@H](C(=O)Nc3ccnc(C(C)(O)CO)c3)OC(C)(C)[C@H]2C)ccc(F)c1F (single isomer, unassigned) [Compound 732] , field pIC50: 7.00 to 8.00

Entry `COCCOc1c([C@H]2[C@H](C(=O)Nc3ccnc(N4CCN(C)CC4=O)c3)O[C@@](C)(C(F)(F)F)[C@H]2C)ccc(F)c1F` ; pIC50 = 7.00 to 8.00

Record COc1c([C@H]2[C@H](C(=O)Nc3ccc(S(C)(=N)=O)nc3)O[C@@](C)(C(F)(F)F)[C@H]2C)ccc(F)c1F (single isomer, unassigned) [Compound 336] , field pIC50: > 8.00

Noted for `COCc1cc(C)nc(NC(=O)[C@@H]2O[C@@](C)(C(F)(F)F)[C@@H](C)[C@H]2c2ccc(F)c(F)c2OCCO)n1` : its pIC50 reads ≤ 6.00

Entry under test: `COc1c([C@H]2[C@H](C(=O)Nc3ccnc(CN4CCCC4)c3)O[C@@](C)(C(F)(F)F)[C@H]2C)ccc(F)c1F` . Its pIC50 was > 8.00

# molecule COc1c([C@H]2[C@H](C(=O)Nc3ccnc(C(C)O)c3)O[C@@](C)(C(F)(F)F)[C@H]2C)ccc(F)c1F (single isomer, unassigned) ; its pIC50 = > 8.00

Entry under test: CCOc1c([C@H]2[C@H](C(=O)Nc3ccn(C)c(=O)c3)O[C@@](C)(C(F)(F)F)[C@H]2C)ccc(F)c1F (stereo in doubt) [Compound 103] . Its pIC50 was > 8.00

Lookup result for `Cc1nn(C(N)=O)cc1NC(=O)[C@@H]1O[C@@](C)(C(F)(F)F)[C@@H](C)[C@H]1c1ccc(F)c(F)c1OCCN1CCOCC1` ; measured pIC50: 7.00 to 8.00

# pIC50 (molecule: `COc1c([C@H]2[C@H](C(=O)Nc3ccc(C(N)=O)nc3)O[C@@](C)(C(F)(F)F)[C@H]2C)cc(O)c(F)c1F` ) is > 8.00

Recorded result, COc1c([C@@H]2[C@@H](C(=O)Nc3cncc(S(=O)(=O)N(C)C)c3)O[C@](C)(C(F)(F)F)[C@@H]2C)ccc(F)c1F (stereo in doubt) , pIC50: ≤ 6.00

The recorded pIC50 for `Cc1nocc1NC(=O)[C@@H]1O[C@@](C)(C(F)(F)F)[C@@H](C)[C@H]1c1ccc(F)c(F)c1OCCN1CC(F)C1` is > 8.00

---

# target_entity: human NaV 1.8 (Homo sapiens, UniProt Q9Y5Y9)
# assay_details: E-VIPR assay detecting and measuring NaV inhibition properties
# Assay type: cell-based
# cond: HEK cells expressing truncated human NaV 1.8; no human serum; read-out: IC50 in the E-VIPR Assay
pIC50: −log10 of the molar value.
pIC50 values for the compounds below.

Sample records with pIC50:
                                   compound  property_measured  measured_value
0  COc1c([C@H]2[C@H](C(=O)Nc3cc(C(C)(C)O)ncn3)O[C@@](C)(C(F)(F)F)[C@H]2C)ccc(F)c1F              pIC50    7.00 to 8.00
1  C[C@H]1[C@@H](c2ccc(F)c(F)c2OCCO)[C@H](C(=O)Nc2ccc(C(N)=O)nc2)O[C@@]1(C)C(F)(F)F              pIC50    7.00 to 8.00
2  C[C@H]1[C@@H](c2ccc(F)c(F)c2OC(F)F)[C@H](C(=O)Nc2ccc(C(N)=O)cc2)O[C@@]1(C)C(F)(F)F (stereo in doubt)              pIC50          > 8.00
3  C[C@H]1[C@@H](c2ccc(F)c(F)c2OCCN2CC3(COC3)C2)[C@H](C(=O)Nc2ccnc(CO)c2)O[C@@]1(C)C(F)(F)F              pIC50    7.00 to 8.00
4  C[C@H]1[C@@H](c2ccc(F)c(F)c2)[C@H](C(=O)Nc2ccnc(S(C)(=O)=O)c2)O[C@@]1(C)C(F)(F)F (stereo in doubt)              pIC50    7.00 to 8.00

Sample CNC(COC)c1ccc(NC(=O)[C@@H]2O[C@@](C)(C(F)(F)F)[C@@H](C)[C@H]2c2ccc(F)c(F)c2OC)cn1 (single isomer, unassigned) ; pIC50 observed: 6.00 to 7.00

Value of measured pIC50 for the entry `CNc1cc(NC(=O)[C@@H]2O[C@@](C)(C(F)(F)F)[C@@H](C)[C@H]2c2ccc(F)c(F)c2OC)ccn1` : 7.00 to 8.00

# pIC50 of `COc1c([C@H]2[C@H](C(=O)Nc3ccc4nc(C(=O)NCCO)cn4c3)O[C@@](C)(C(F)(F)F)[C@H]2C)ccc(F)c1F` = 7.00 to 8.00

Summary for this compound, C[C@H]1[C@@H](c2ccc(F)c(F)c2OC(F)F)[C@H](C(=O)Nc2ccn(C)c(=O)c2)O[C@@]1(C)C(F)(F)F (single isomer, unassigned) : pIC50 is > 8.00

Summary for this compound, COc1c([C@H]2[C@H](C(=O)Nc3cc(C(C)(O)CF)ncn3)O[C@@](C)(C(F)(F)F)[C@H]2C)ccc(F)c1F (single isomer, unassigned) : pIC50 is 7.00 to 8.00

Measured pIC50, `COc1c([C@H]2[C@H](C(=O)Nc3ccnc(N4CCN(C)CC4)c3)O[C@@](C)(C(F)(F)F)[C@H]2C)ccc(F)c1F` : 7.00 to 8.00

Entry `COc1c([C@H]2[C@H](C(=O)Nc3ccc(-c4ncc[nH]4)nc3)O[C@@](C)(C(F)(F)F)[C@H]2C)ccc(F)c1F` ; pIC50 = 7.00 to 8.00

Where these numbers come from: patent US20240368135A1
